- Experimental system: Retinoic acid receptor RXR-alpha (Homo sapiens)
- Protocol summary: OT_NURR1_NURR1RXRa_0480: Odyssey Thera (OT) 8-hour HEK293T Protein Complementation Assay for Nurr1/retinoid X receptor (RXR) (AID 2283385)
Results filed as inconclusive are left out. Calls of active or inactive are those of the source. The calls were made as follows: active = hit-call score of the fitted dose curve at least 0.9, where 1 is the maximum; inconclusive = response in the unintended direction; inactive = score below 0.9.
I would appreciate it if you answered using one of these outcomes: active, inactive

Solved entries (count: 2):
# Molecule, Classification
measured = [
    ("CCO[Si](CCCNC(N)=O)(OCC)OCC", "inactive"),
    ("CCCOC(=O)c1cc(O)c(O)c(O)c1", "inactive"),
]

Task: Identify the outcome logged in this assay for the molecule shown: CCCCCCCCCCCCO
Output: inactive

Task: Record: CC(C)(C)c1csc(-c2cc3cc(OCc4ccccc4CC(=O)O)ccc3o2)n1
Output: active

Task: Record: CC[C@H](NC(=O)c1cc(F)ccc1NS(=O)(=O)c1cccc2cccnc12)c1ccccc1
Output: inactive

Task: Record: Cc1oc2c(NC(=O)c3c(Cl)cccc3Cl)cccc2c1C(C)(C)O
Output: active

Task: Record: CC(C)(O)c1ccc(CNC(=O)c2cccnc2Oc2ccc3nonc3c2)cc1
Output: inactive

Task: Record: CCCCCCCCOc1ccc(C(=O)c2ccccc2)c(O)c1
Output: inactive

Task: Record: Oc1ccccc1
Output: inactive

Task: Record: C[C@]12CC[C@@H]3c4ccc(O)cc4CC[C@H]3[C@@H]1CCC2=O
Output: inactive

Task: Record: CCCC(=O)OCCC(C)C
Output: inactive

Task: Record: COc1cccc([C@H](O)C2CCN(CCc3ccc(F)cc3)CC2)c1OC
Output: inactive

Task: Record: O=C(Nc1ccc(Cl)cc1)Nc1ccc(Cl)c(Cl)c1
Output: active
